# credit: patent US20180185504A1

Hi there, I'd appreciate the recorded kon for every entry that follows.
EXPERIMENTAL_TARGET: T1, hPRLR.mmh (soluble monomeric human PRLR) (human)
T1 construct: soluble monomeric PRLR protein
T1 chain: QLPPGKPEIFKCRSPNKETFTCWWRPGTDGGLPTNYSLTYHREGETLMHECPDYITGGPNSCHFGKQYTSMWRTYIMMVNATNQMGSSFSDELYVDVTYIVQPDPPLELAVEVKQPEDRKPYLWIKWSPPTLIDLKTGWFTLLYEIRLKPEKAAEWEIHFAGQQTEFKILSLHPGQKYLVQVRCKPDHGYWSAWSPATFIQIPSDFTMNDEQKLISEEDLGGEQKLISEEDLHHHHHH
PROCEDURE_DETAILS: SPR (Biacore), antibody capture, 37 C
Procedure: Measurements were conducted on a T200 Biacore instrument. Kinetic association (kₐ) and dissociation (kd) rate constants were determined by processing and fitting the data to a 1:1 binding model using Scrubber 2.0 curve fitting software.
One number for each entry, in M⁻¹ s⁻¹.

Observe how each entry below is paired with its result.
BINDER | READOUT_NAME | REPORTED_RESULT
H1H6803P (antibody, human IgG1, V domains shown, human IgG1 Fc (H1H)) VH: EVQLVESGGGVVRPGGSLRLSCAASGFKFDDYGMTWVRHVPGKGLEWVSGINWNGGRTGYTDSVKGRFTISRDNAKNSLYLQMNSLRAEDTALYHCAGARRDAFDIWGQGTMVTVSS VL: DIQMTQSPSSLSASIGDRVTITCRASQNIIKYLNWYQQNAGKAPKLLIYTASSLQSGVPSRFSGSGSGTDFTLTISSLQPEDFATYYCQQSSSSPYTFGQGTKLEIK | kon | 129000
H1H6793P (antibody, human IgG1, V domains shown, human IgG1 Fc (H1H)) VH: EVQLVESGGGLVQPGGSLRLSCAASGFSFSIYAMSWFRQAPGKGLEWVSAINGRGDGTHYADSVKGRFTISRDNSKTTLYLQMSSLRAEDTAVYYCAKPVMSTNGFDIWGQGTMVTVSS VL: DIQMTQSPSTLSASVGDRVTITCRASQSISSWLAWYQLKPGKAPKLLIYKASNLESGVPSRFSGSGSGTEFTLTISSLQPDDFATYYCQQYNIYWTFGQGTKVEIK | kon | 339000

Which kon value is on record for H1H6960N (antibody, human IgG1, V domains shown, also called H2M6960N) VH: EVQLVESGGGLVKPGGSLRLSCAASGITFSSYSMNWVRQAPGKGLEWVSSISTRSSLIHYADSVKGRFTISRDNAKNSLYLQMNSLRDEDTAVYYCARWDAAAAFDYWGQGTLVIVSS VL: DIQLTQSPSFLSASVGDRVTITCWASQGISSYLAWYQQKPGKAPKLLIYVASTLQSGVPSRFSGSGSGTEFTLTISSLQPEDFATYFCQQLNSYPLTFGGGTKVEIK ?
122000
